# maps each entry to its IC50
Test system: MES SA (uterine sarcoma cell line)
Measurement protocol: In vitro cytotoxicity assay (CellTiter-Glo, 72 hours), MES SA
Type: cell-based
Assay conditions: Homo sapiens, MES-SA, 72 h, read-out: MES SA, IC50 Value in nM
Provide only the numeric value, understood in nM.

COC(=O)[C@@H](C)C[C@H](Cc1ccccc1)NC(=O)c1csc([C@@H](C[C@H](C(C)C)N(C)C(=O)[C@@H](NC(=O)[C@H]2CCCCN2C)C(C(F)(F)F)C(F)(F)F)OC(C)=O)n1 [Tb79]: 39.1

Field: next compound
May I ask what IC50 has been recorded for CCCC[C@H](NC(=O)[C@H]1CCCCN1C)C(=O)N(C)[C@H](C[C@@H](OC(C)=O)c1nc(C(=O)N[C@@H](Cc2ccccc2)C[C@H](C)C(=O)OCC)cs1)C(C)C [Tb95] ?
0.937
